Study the reported log10 IC50 values for Tyrosine-protein kinase receptor UFO (Homo sapiens) given below; they originate from different publications.
experimental.system: Tyrosine-protein kinase receptor UFO (Homo sapiens)
Sequence (P30530 whole entry): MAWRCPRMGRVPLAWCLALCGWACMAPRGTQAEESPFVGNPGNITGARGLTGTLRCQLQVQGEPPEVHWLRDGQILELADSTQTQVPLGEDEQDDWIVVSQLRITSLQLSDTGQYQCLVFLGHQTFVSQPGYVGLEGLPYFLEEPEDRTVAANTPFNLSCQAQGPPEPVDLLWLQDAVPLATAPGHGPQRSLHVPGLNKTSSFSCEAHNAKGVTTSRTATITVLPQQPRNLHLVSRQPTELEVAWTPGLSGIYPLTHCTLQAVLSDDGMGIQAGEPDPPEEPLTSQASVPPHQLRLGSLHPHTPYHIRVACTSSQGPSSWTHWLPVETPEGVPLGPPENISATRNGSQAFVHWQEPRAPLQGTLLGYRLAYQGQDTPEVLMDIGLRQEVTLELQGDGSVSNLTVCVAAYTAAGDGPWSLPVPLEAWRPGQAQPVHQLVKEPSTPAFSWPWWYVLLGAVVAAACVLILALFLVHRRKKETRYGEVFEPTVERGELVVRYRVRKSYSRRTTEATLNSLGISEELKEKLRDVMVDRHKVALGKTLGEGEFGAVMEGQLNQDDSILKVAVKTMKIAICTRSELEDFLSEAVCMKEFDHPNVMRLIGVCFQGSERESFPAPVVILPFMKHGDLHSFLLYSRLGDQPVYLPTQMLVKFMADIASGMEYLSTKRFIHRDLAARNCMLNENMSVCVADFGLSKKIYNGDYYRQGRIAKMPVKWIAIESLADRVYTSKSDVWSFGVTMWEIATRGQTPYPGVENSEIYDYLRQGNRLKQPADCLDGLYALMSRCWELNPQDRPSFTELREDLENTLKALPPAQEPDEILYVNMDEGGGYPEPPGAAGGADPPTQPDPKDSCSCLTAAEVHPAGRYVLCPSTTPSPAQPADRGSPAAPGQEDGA
Friendly reminder: values = log10 of IC50, unit nM.

# lookup: log10 IC50 of CNC(=O)c1ccc(-c2ccc(=O)n(CCc3ccc4ncc(-c5cnn(C6CCOCC6)c5)cc4c3)n2)cc1C(F)(F)F
2.21

Request: CC(C)(O)COc1ccc2c(Oc3ccc(Nc4nccc5[nH]cc(-c6ccccc6)c(=O)c45)cc3F)ccnc2c1
1.51

What would you report for CN1CCc2ccc(Nc3ncc(Cl)c(Nc4ccccc4S(=O)(=O)N(C)C)n3)cc2C1 ?
1.15

Try this compound next: O=C(c1cc2ccc(F)cc2[nH]1)N1C[C@]2(CCN(C3CCNC3)C2)c2ccccc21 (stereo partly specified)
3.72

Another compound to check: Nc1ncnc2c1c(-c1ccc(NC(=O)c3cn(CC4CCOCC4)cc(-c4ccc(F)cc4)c3=O)cc1)cn2CCN1CCOCC1
0.43

How about this compound: CCN1CCN(CCCOc2cc3nccc(Oc4c(F)cc(NC(=O)NN5C(=O)CSC5c5c(F)cccc5F)cc4F)c3cc2OC)CC1 (stereo unspecified)
1.72

What would you report for CC(C)n1cc(C(=O)Nc2ccc(Oc3ncnc4c3CN(C(=O)C3CC3)C4)c(F)c2)c(=O)n(-c2ccc(F)cc2)c1=O ?
0.43

And Cn1cc(-c2ccc(NC(=O)c3cn(CC4CCOCC4)cc(-c4ccc(F)cc4)c3=O)cc2F)c2c(N)ncnc21 ?
-0.10

# repeat for COc1cc2c(Oc3ccc(NC(=O)C4(c5nnc(-c6ccc(F)cc6)o5)CC4)cc3F)ccnc2cc1OCCCN1CCCCC1
1.00

What would you report for CN1CCN(c2ccc(Nc3ncc(Cl)c(Nc4ccccc4S(=O)(=O)N(C)C)n3)cc2)CC1 ?
3.24

Similarly, Cn1cc(-c2ccc(NC(=O)c3cn(CC4CCOCC4)cc(-c4cccc(F)c4)c3=O)cc2)c2c(N)ncnc21 ?
0.48

Queued: CC(C)n1cc(C(=O)Nc2ccc(Oc3ncnc4c3CCN(C(=O)CN3CCOCC3)C4)c(F)c2)c(=O)n(-c2ccc(F)cc2)c1=O
1.23

Let us now turn to CNc1ncc2c(-c3ccc(N4CCNCC4)nc3)nn(CC3OCCO3)c2n1
2.72

One more compound: CC(C)n1cc(C(=O)Nc2ccc(Oc3ncnc4c3CCN(C3CCN(CC5CC5)CC3)C4)c(F)c2)c(=O)n(-c2ccc(F)cc2)c1=O
0.54
